This collection of values is drawn from patent US20100093973A1.

Measured Inhibitory Rate (%) of Phosphorus Absorption of individual entries
tested on: absorption of phosphorus; assay: Evaluation of efficacy as phosphorus absorption inhibitors: serum radioactivity AUC (0-120 min) after oral 32P NaH2PO4 in rats, inhibitory rate; assay type: in vivo; settings: rats of SD line, oral dose 100 mg/5 mL/kg, 32P NaH2PO4 given orally 5 min later, serum radioactivity AUC 0-120 min vs control
Counter-ions that a name gives are not always drawn.
measurement_label: Inhibitory Rate (%) of Phosphorus Absorption

molecule	result
NCCC[C@H](NC(=O)[C@H](CCCN)NC(=O)[C@@H](N)CCCN)C(=O)NCCCN(CCCCN(CCCNC(=O)[C@H](CCCN)NC(=O)[C@H](CCCN)NC(=O)[C@@H](N)CCCN)C(=O)[C@H](CCCN)NC(=O)[C@H](CCCN)NC(=O)[C@@H](N)CCCN)C(=O)[C@H](CCCN)NC(=O)[C@H](CCCN)NC(=O)[C@@H](N)CCCN [Example 28, SPM(Orn)12 Hydrochloride]	66%
NCCCC[C@H](NC(=O)[C@@H](N)CCCCN)C(=O)NCCCC[C@H](N)C(=O)NCCCN(CCCCN(CCCNC(=O)[C@@H](N)CCCCNC(=O)[C@H](CCCCN)NC(=O)[C@@H](N)CCCCN)C(=O)[C@@H](N)CCCCNC(=O)[C@H](CCCCN)NC(=O)[C@@H](N)CCCCN)C(=O)[C@@H](N)CCCCNC(=O)[C@H](CCCCN)NC(=O)[C@@H](N)CCCCN [Example 29, SPM(Lys)12 Hydrochloride]	55%
NCCCC[C@H](N)C(=O)NCCCC[C@H](NC(=O)[C@@H](N)CCCCN)C(=O)NCCCN(CCCCN(CCCNC(=O)[C@H](CCCCNC(=O)[C@@H](N)CCCCN)NC(=O)[C@@H](N)CCCCN)C(=O)[C@H](CCCCNC(=O)[C@@H](N)CCCCN)NC(=O)[C@@H](N)CCCCN)C(=O)[C@H](CCCCNC(=O)[C@@H](N)CCCCN)NC(=O)[C@@H](N)CCCCN [Example 2, SPM(Lys)12 Hydrochloride]	52%
